# subject-of-test: HLA-DR1 (Homo sapiens, UniProt P01903+P01911, A100R/D57E/F55L/F60I/F76Y/I96L/L162R/M171V/P40L/Q125E/R42F/V115G/Y59C)
# Construct: DRα*0101 (Uniprot: P01903, residues 26–207); HLA-DRβ1*0101 (Uniprot: P04229, residues 30–219); made in house
# method: HLA-DR1 competitive peptide-binding assay
# experimental-conditions: HLA-DR1 binding (IC50)
No end group written: not given here.
experimental-readout: IC50

stdin: // lookup IC50 for FARRPPLAELAALALSGSRL
stdout: 144 nM

The reported measurements were obtained from paper PMC6937582.
